Kindly state kon for each of the entries shown.
Target: CD3 (antigen of the binding affinity table of Example 1) (UniProt P07766)
Experiment: kinetic fit with two-state parameters; method not given
Numbers only, in M⁻¹ s⁻¹.

# example entries with known answers
[[record]]
binder = "H2L6 (antibody, V domains shown) VH: QVQLQQSGAEVAKPGASVKVSCKASGYTFTRYTMHWVRQAPGQGLEWMGYINPSRGYTNYNQKFKDRATLTRDKSISTAYMELSRLRSDDTAVYYCARYYDDHYSLDYWGQGTTLTVSS VL: DIQMTQSPSSLSASVGDRVTITCSASSSVSYMNWYQQKPGKAPKLWIYDTSKLASGVPSRFSGSGSGTDYTLTISSLQPEDFATYYCQQWSSNPFTFGSGTKLEINR"
metric_name = "kon"
value_units = "M⁻¹ s⁻¹"
reported_value = "4.1e+06"

[[record]]
binder = "H4L2 (antibody, V domains shown) VH: QVQLQQSGAEVKKPGASVKMSCKASGYTFTRYTMHWVRQAPGQGLEWIGYINPSRGYTNYNQKFKDRVTLTTDTSISTAYMELSRLRSDDTAVYYCARYYDDHYSLDYWGQGTTLTVSS VL: DIQMTQSPSSLSASVGDRVTMTCSASSSVSYMNWYQQKPGKAPKLLIYDTSKLASGVPSRFSGSGSGTDFTLTISSMQPEDFATYYCQQWSSNPFTFGSGTKLEINR"
metric_name = "kon"
value_units = "M⁻¹ s⁻¹"
reported_value = "1.44e+06"

[[record]]
binder = "H3L4 (antibody, V domains shown) VH: QVQLVQSGAEVKKPGASVKMSCKASGYTFTRYTMHWVRQAPGQGLEWIGYINPSRGYTNYNQKFKDRATMTTDKSISTAYMELSRLRSDDTAVYYCARYYDDHYSLDYWGQGTTLTVSS VL: DIQLTQSPSSLSASVGDRVTITCSASSSVSYMNWYQQKPGKAPKLLIYDTSKLASGVPSRFSGSGSGTDFTLTISSMQPEDFATYYCQQWSSNPFTFGSGTKLEINR"
metric_name = "kon"
value_units = "M⁻¹ s⁻¹"
reported_value = "3.03e+06"

[[record]]
binder = "H2L2 (antibody, V domains shown) VH: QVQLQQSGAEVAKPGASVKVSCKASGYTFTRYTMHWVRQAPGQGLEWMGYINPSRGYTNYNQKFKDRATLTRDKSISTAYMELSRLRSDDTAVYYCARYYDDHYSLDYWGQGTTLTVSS VL: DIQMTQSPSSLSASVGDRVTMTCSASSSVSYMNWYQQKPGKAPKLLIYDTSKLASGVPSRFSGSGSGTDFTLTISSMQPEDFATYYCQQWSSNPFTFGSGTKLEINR"
metric_name = "kon"
value_units = "M⁻¹ s⁻¹"
reported_value = "3.26e+06"

[[record]]
binder = "H4L3 (antibody, V domains shown) VH: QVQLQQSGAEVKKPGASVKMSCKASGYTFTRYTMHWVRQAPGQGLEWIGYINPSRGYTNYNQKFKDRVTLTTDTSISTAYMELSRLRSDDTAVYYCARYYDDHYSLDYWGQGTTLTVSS VL: DIQLTQSPSSLSASVGDRVTITCSASSSVSYMNWYQQKPGKAPKLLIYDTSKLASGVPSRFSGSGSGTDYTLTISSLQPEDFATYYCQQWSSNPFTFGSGTKLEINR"
metric_name = "kon"
value_units = "M⁻¹ s⁻¹"
reported_value = "1.88e+06"

[[record]]
binder = "H2L4 (antibody, V domains shown) VH: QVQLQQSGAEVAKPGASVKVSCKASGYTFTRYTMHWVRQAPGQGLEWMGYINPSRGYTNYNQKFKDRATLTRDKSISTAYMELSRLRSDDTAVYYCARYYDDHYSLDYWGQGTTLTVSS VL: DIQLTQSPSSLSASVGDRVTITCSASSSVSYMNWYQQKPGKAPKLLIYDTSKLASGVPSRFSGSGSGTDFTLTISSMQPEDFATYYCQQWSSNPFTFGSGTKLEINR"
metric_name = "kon"
value_units = "M⁻¹ s⁻¹"
reported_value = "3.54e+06"

[[record]]
binder = "H3L5 (antibody, V domains shown) VH: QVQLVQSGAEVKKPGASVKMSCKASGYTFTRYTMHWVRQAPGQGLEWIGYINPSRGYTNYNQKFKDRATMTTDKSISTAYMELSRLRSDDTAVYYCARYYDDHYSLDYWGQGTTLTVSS VL: DIQMTQSPSSLSASVGDRVTITCSASSSVSYMNWYQQKPGKAPKRWIYDTSKLASGVPSRFSGSGSGTDFTLTISSLQPEDFATYYCQQWSSNPFTFGSGTKLEINR"
metric_name = "kon"
value_units = "M⁻¹ s⁻¹"
reported_value = "3.51e+06"

[[record]]
binder = "H2L3 (antibody, V domains shown) VH: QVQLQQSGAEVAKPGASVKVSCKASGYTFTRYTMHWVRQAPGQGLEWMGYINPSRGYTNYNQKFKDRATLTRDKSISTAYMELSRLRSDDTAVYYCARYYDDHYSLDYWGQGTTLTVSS VL: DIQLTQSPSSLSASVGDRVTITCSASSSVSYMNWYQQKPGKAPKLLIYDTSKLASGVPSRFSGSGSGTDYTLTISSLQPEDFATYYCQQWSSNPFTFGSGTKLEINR"
metric_name = "kon"
value_units = "M⁻¹ s⁻¹"
reported_value = "6.42e+06"

[[record]]
binder = "H2L1 (antibody, V domains shown) VH: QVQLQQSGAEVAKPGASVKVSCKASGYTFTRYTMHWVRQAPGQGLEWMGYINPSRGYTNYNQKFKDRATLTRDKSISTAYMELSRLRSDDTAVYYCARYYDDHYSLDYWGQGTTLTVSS VL: DIQMTQSPSSLSASVGDRVTMTCSASSSVSYMNWYQQKPGKAPKRLIYDTSKLASGVPSRFSGSGSGTDFTLTISSLQPEDFATYYCQQWSSNPFTFGSGTKLEINR"
metric_name = "kon"
value_units = "M⁻¹ s⁻¹"
reported_value = "3.52e+06"


Could you now look at the following binder, please?
Which kon is reported for this binder? H3L1 (antibody, V domains shown) VH: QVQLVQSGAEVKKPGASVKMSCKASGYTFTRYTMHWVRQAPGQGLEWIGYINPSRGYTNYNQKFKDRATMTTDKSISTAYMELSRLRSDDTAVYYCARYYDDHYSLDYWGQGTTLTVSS VL: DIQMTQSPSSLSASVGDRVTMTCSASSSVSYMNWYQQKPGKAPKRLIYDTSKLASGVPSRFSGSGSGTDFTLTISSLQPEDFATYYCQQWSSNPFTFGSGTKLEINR 4.67e+06
